- method: Metabolic stability in human hepatocytes assessed as half life measured upto 120 mins by LC-MS/MS analysis
- Assay type: ADME, cell-based, Hepatocyte
// returns Condition not met unless half-life is strictly below 20 min, in which case Condition met

{"compound": "CCOc1ccc(NC(C)=O)cc1 [PHENACETIN]", "labelValue": "Condition not met"}
{"compound": "COc1cc(/C=C/c2nc(NCc3ccc(C)cc3)c3sccc3n2)cc(OC)c1OC", "labelValue": "Condition not met"}
{"compound": "COc1ccc2c(c1)[C@]13CCCC[C@@H]1[C@H](C2)N(C)CC3 [DEXTROMETHORPHAN]", "labelValue": "Condition met"}
{"compound": "O=C(O)Cc1ccccc1Nc1c(Cl)cccc1Cl [DICLOFENAC]", "labelValue": "Condition met"}
{"compound": "Cc1ncc2n1-c1ccc(Cl)cc1C(c1ccccc1F)=NC2 [MIDAZOLAM]", "labelValue": "Condition met"}
{"compound": "COc1ccc2[nH]c([S+]([O-])Cc3ncc(C)c(OC)c3C)nc2c1 (stereo unspecified) [OMEPRAZOLE]", "labelValue": "Condition not met"}

---

- method: Plasma clearance in Sprague-Dawley rat at 1 mg/kg, iv measured after 0.08 to 24 hrs hrs by LC/MS/MS analysis
- Assay type: ADME, organism-based
- conditionLabel: time 0.08-24 hrs

{"smilesRepr": "COc1cc(/C=C/c2nc(NCc3ccc(C)cc3)c3sccc3n2)cc(OC)c1OC", "clearance, mL/min/kg": 42.9}

---

- method: Metabolic stability in rat hepatocytes assessed as half life measured upto 120 mins by LC-MS/MS analysis
- Type: ADME, cell-based, Hepatocyte
measurementKind: half-life (min)

{"compound": "COc1cc(/C=C/c2nc(NCc3ccc(C)cc3)c3sccc3n2)cc(OC)c1OC", "unitString": "min", "measuredNumber": 55.5}
{"compound": "COc1ccc2[nH]c([S+]([O-])Cc3ncc(C)c(OC)c3C)nc2c1 (stereo unspecified)", "unitString": "min", "measuredNumber": 13.5}
{"compound": "O=C(O)Cc1ccccc1Nc1c(Cl)cccc1Cl", "unitString": "min", "measuredNumber": 13.6}
{"compound": "Cc1ncc2n1-c1ccc(Cl)cc1C(c1ccccc1F)=NC2", "unitString": "min", "measuredNumber": 3.9}
{"compound": "CCOc1ccc(NC(C)=O)cc1", "unitString": "min", "measuredNumber": 32.6}
{"compound": "COc1ccc2c(c1)[C@]13CCCC[C@@H]1[C@H](C2)N(C)CC3", "unitString": "min", "measuredNumber": 4.6}

---

Reported inhibition at 10 µM is given for each of the following compounds.
- Tested on: RAW264.7
- method: Antiinflammatory activity against mouse RAW264.7 cells assessed as inhibition of LPS-induced NO production at 10 uM preincubated for 1 hrs followed by LPS stimulation and measured after 24 hrs by Griess assay relative to control
- Format: functional
- conditionLabel: time 25 hrs

{"smilesRepr": "CCCc1nn(C)c2c(N3CCS(=O)(=O)CC3)nc(/C=C/c3nc(C)c(C)nc3C)nc12", "unitString": "%", "inhibition at 10 µM": 51.6}
{"smilesRepr": "COc1ccc(Nc2nc(/C=C/c3cc(OC)c(OC)c(OC)c3)nc3ccsc23)cc1", "unitString": "%", "inhibition at 10 µM": 52.5}
{"smilesRepr": "Clc1ccccc1CNc1nc(/C=C/c2ccccc2)nc2ccsc12", "unitString": "%", "inhibition at 10 µM": 35.2}
{"smilesRepr": "COc1cc(/C=C/c2nc(O)nc(NC(C)C)n2)cc(OC)c1OC", "unitString": "%", "inhibition at 10 µM": 34}
{"smilesRepr": "CCCc1nn(C)c2c(N3CCS(=O)(=O)CC3)nc(/C=C/c3ccc[n+]([O-])c3)nc12", "unitString": "%", "inhibition at 10 µM": 3.13}
